The reported numbers originate from patent US6124449.

Biological target: TGF-beta1 (hTGF-beta1) (Homo sapiens, UniProt P01137 P01137:279-390)
Sequence (P01137 279-390, one chain of several): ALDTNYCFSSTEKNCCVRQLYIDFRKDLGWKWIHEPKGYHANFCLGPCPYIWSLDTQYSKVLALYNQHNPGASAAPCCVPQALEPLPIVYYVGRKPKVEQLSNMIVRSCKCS
Experiment: filter; biphasic; Kd1 7.7±1.6 nM
Settings: tags: R&D Systems; biotinylated form (NFTG0) used for BIAcore; chain copies: 2
measurement.name: Kd (nM)
State the answer as a number, implicitly in nM.

Prompt: Any idea what its Kd is? The binder is 40-26 (ssRNA, 2'-F C and U) RNA: GGGAGGACGAUGCGGUUAGGGGCGUCAACAUCGCUAUUACAAUCUUCGCCUUCCCAGACGACUCGCCCGA
Completion: 0.0408
